Reported koff values for a set of binders
Molecular target: T1, recombinant human LAG-3-Fc (human, UniProt P18627 23-450)
T1 construct: also called human LAG-3 (R&D Systems cat no. 2319-L3); LAG3 antigen
T1 sequence: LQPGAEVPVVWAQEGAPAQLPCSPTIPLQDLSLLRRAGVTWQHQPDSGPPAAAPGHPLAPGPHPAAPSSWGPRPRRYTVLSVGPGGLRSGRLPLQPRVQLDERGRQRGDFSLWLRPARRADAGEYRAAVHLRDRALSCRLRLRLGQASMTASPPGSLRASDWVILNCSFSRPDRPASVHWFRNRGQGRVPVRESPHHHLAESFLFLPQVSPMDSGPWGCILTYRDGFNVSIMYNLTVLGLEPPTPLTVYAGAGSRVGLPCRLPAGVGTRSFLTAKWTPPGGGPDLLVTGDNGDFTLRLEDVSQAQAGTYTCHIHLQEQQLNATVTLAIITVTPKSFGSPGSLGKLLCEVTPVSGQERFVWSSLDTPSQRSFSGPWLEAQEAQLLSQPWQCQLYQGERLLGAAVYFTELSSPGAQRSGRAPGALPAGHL
Experiment: BLI (Octet); human LAG-3-Fc amine-coupled to biosensor, VH in solution, 1:1 fit
Respond with a number, then the unit of measure.

{"Binder": "VH 1.2 (VHH, Human VH single domain antibody against LAG-3; It is VH 1.1 with S23A, P119Q, N57S and S58T; also called variant 2) VHH: EVQLVESGGGVVRPGGSLRLSCAASGFTFDDYGMSWVRQAPGKGLEWVSGIHWNGGSTGYADSVKGRFTISRDNAKNSLYLQMNSLRAEDTALYYCARIPREDCSSASCYTDAIDFWGQGTMVTVSS", "Recorded Endpoint": "koff", "Observed Measurement": "0.00179 s⁻¹"}

Turning now to a further record.
Look up koff for this binder: variant 6 of VH 1.1 (VHH, 4) VHH: EVQLVESGGGVVRPGGSLRLSCAASGFTFDDFGMSWVRQAPGKGLEWVSGIHWNSDITAYADSVKGRFTISRDNAKNSLYLQMNSLRAEDTALYYCARIPREDCSSASCYTDAIDFWGPGTMVTVSS 0.00343 s⁻¹
